# Test system: PC-3M
# TEST SUMMARY: Further cell proliferation assay, X-Celligence RTCA, PC-3M
# Format: cell-based
# RUN CONDITIONS: Homo sapiens, castration resistant prostate cancer cells
ASSAY READOUT: EC50 (µM)
Express the result in µM but write the number alone.

Q: Look up EC50 for this compound: CNc1ncnc2c1ccn2[C@@H]1C[C@H](CNCCCNCCc2cccc(Oc3ccccc3)c2)[C@@H](O)[C@H]1O [Compound 287]
A: 15.8

----------
Reported pKd is given for each of the following compounds.
# ASSAY TARGET: UniProt:Q9Y5N5
# Sequence (Q9Y5N5 1-214): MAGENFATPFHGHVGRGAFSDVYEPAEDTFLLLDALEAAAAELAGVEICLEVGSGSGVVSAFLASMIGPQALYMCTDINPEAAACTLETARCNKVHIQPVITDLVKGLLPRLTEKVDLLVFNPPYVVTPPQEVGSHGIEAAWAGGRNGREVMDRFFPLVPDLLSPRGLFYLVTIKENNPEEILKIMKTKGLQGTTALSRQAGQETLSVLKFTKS
# Sequence (Q9UI30 1-120 isoform Q9UI30-2 partner): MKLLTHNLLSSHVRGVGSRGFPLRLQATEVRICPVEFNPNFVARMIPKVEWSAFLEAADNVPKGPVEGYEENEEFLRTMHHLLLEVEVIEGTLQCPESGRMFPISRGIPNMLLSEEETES
# TEST SUMMARY: Microscale thermophoresis (MST) KMT9 binding
# RUN CONDITIONS: His-tag labelled KMT9 20 nM; read-out: MST (Kd)
pKd: −log10 of the molar value.

CN1CCC[C@@H]([C@H]2C[C@@H](n3cc(-c4nc(Cc5ccccc5)cs4)c4c(N)nc(Cl)nc43)[C@H](O)[C@@H]2O)C1 [Compound 597S]; ≥ 8.00
CNc1nc(Cl)nc2c1ccn2[C@@H]1C[C@H](CNCCCNCCc2cccc(Oc3ccccc3)c2)[C@@H](O)[C@H]1O; 7.00 to 8.00

Q: Look up pKd for this compound: Nc1nc(Cl)nc2c1c(-c1nccs1)cn2[C@@H]1C[C@H](C2CCN(CCc3ccncc3)CC2)[C@@H](O)[C@H]1O
A: ≥ 8.00

----------
Reported ΔTm at 500 µM is given for each of the following compounds.
# ASSAY TARGET: KMT9 (Homo sapiens)
# Sequence (Q9Y5N5 1-214): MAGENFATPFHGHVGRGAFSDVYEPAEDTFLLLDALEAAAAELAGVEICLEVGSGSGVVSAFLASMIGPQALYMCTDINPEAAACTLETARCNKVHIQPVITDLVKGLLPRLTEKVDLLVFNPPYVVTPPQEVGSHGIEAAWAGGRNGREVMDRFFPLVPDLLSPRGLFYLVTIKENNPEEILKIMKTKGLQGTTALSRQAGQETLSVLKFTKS
# Sequence (Q9UI30 1-120 isoform Q9UI30-2 partner): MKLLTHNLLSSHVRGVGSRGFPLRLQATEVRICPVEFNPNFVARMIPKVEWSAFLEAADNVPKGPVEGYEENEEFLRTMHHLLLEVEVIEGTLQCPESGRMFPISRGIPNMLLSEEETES
# TEST SUMMARY: KMT9 thermal shift assay (SyproOrange)
# Type: binding
# RUN CONDITIONS: ΔTm; 500 µM compound, 2 μM KMT9, 5X SO; read-out: Thermal shift

Nc1ncnc2c1c(-c1nccs1)cn2[C@@H]1C[C@H](c2ccccc2)[C@@H](O)[C@H]1O [Compound 395]; ≤ 10 °C
Nc1ncnc2c1c(-c1ncc[nH]1)cn2[C@@H]1C[C@H](CNCCCNCCc2ccccc2)[C@@H](O)[C@H]1O [473 (347)]; 15 to 20 °C
CNc1ncnc2c1ccn2[C@@H]1C[C@H](CNCC(F)(F)CNCCc2ccc3ccccc3c2)[C@@H](O)[C@H]1O [357 (261)]; ≤ 10 °C

Q: Look up ΔTm at 500 µM for this compound: O[C@@H]1[C@@H](CNCCCNCCc2ccccc2)C[C@@H](n2cc(-c3cc(Cc4ccccc4)cs3)c3cnc(Cl)nc32)[C@@H]1O [Compound 621]
A: 15 to 20 °C
